TARGET UNDER TEST: UniProt:Q9UBN7
Sequence (Q9UBN7 1-1215): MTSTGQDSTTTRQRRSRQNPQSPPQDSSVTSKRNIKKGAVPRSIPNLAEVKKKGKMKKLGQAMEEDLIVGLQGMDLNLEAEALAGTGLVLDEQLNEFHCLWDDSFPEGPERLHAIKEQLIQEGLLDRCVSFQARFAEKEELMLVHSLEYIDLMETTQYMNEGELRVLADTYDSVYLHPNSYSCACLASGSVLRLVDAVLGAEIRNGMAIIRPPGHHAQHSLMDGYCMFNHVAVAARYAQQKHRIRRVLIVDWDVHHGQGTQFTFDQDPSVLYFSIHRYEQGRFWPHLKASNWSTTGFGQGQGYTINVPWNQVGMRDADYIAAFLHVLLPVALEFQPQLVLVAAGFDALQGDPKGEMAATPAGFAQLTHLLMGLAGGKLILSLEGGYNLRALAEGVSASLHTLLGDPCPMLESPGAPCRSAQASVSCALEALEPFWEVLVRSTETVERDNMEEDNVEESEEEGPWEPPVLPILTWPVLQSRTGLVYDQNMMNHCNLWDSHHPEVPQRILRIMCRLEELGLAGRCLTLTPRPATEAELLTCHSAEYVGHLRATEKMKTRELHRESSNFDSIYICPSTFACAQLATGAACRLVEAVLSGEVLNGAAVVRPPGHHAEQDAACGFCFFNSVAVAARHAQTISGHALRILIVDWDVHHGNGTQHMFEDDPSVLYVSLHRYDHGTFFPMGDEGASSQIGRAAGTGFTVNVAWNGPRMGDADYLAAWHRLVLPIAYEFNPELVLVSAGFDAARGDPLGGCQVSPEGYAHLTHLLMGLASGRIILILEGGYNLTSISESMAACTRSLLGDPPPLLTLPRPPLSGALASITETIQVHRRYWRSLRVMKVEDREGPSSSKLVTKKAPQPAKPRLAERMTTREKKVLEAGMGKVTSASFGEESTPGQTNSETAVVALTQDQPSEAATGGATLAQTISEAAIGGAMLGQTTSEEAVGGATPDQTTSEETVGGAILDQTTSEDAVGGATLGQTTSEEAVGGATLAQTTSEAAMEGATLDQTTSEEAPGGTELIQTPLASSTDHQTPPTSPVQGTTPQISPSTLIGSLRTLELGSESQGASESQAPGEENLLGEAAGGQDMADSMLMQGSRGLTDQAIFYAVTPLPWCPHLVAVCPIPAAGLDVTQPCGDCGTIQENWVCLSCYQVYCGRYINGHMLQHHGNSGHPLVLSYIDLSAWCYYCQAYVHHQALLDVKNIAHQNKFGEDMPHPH
CONDITION INFO: ratio of HDAC8 IC50/HDAC6 IC50; Table 1, number
ENDPOINT NAME: Selectivity (6 v 8) (fold)
Report as a plain number; the unit fold is understood.

Quick one: Selectivity (6 v 8) (fold) of O=C(NO)c1cc(F)c2c(c1)CCN([C@H]1CCC13CCCCC3)C2 (single isomer, unassigned) ?
207.1

Quick one: Selectivity (6 v 8) (fold) of O=C(NO)c1ccc2c(c1)CN1CCCC[C@@H]1C2 (single isomer, unassigned) ?
88.8

Quick one: Selectivity (6 v 8) (fold) of O=C(NO)c1ccc(CN2CC3(COC3)C2)c(F)c1 ?
44.8

Quick one: Selectivity (6 v 8) (fold) of O=C(NO)c1cc(F)c2c(c1)CN(CC13CC4CC(CC(C4)C1)C3)C2 ?
291.4
